MEASURED ON: FGFR1 (UniProt P11362)
Sequence (P11362 whole entry, looked up): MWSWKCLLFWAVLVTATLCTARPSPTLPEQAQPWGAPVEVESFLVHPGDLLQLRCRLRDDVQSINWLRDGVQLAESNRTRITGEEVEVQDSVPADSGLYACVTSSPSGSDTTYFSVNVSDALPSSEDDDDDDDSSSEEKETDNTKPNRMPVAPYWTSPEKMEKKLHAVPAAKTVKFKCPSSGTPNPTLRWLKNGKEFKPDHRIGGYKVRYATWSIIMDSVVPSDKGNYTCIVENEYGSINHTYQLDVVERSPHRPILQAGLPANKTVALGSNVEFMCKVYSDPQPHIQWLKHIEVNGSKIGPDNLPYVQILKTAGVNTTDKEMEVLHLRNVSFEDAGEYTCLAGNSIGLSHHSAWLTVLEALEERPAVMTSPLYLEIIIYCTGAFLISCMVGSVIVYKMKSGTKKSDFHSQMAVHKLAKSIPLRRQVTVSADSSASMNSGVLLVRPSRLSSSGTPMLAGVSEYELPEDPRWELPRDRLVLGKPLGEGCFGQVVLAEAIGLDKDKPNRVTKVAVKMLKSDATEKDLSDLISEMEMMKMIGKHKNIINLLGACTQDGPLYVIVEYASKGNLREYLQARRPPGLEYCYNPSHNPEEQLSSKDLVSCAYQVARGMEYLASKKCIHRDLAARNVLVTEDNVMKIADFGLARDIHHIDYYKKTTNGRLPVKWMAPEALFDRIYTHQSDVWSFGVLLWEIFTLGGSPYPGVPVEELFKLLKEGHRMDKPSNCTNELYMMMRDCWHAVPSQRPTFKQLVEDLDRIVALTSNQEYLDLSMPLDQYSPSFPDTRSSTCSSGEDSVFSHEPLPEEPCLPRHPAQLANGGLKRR
RUN DESCRIPTION: phosphorylation enrichment, bacterial display (enrichment ratio); higher = better substrate or ligand; peptides without Tyr show the background;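 note: 11-residue human phosphosite peptides and single-mutation variants displayed on the E. coli surface, counted by deep sequencing, each peptide's frequency after selection divided by its frequency in the unselected input library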;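 note: frequency after pTyr selection over input frequency; kinase dosed for 20-30% of maximal phosphorylation in three min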
VALUE TYPE: phosphorylation enrichment
Give the value as a plain number.

residue_sequence="IEDPYYGNDSD [ACP1_Y133]" measured_on="FGFR1 (UniProt P11362)" number=0.807
residue_sequence="LFNQDYPIHSV [GATM_Y227_YF]" measured_on="FGFR1 (UniProt P11362)" number=3.19
residue_sequence="CKLYQYYLDHL [ATRX_Y1849]" measured_on="FGFR1 (UniProt P11362)" number=1.44
residue_sequence="RRKRAYVEIEF [MAK16_Y282_Q277R_YF]" measured_on="FGFR1 (UniProt P11362)" number=0.563
residue_sequence="GVRLFYRVMES [RB1_Y454_YF]" measured_on="FGFR1 (UniProt P11362)" number=0.488
residue_sequence="PVDNLYAEPAV [PRPS1_Y146]" measured_on="FGFR1 (UniProt P11362)" number=0.61

## Task Specify phosphorylation enrichment for DRPASYKKKSM [PDGFRA_Y768] and stop.
## Result 0.324

## Task Specify phosphorylation enrichment for CTTIHYNFRCN [TP53_Y234_M237R_YF] and stop.
## Result 0.487

## Task Specify phosphorylation enrichment for NPQKSCFIRLF [WAS_Y83_Y83C_YF] and stop.
## Result 0.583

## Task Specify phosphorylation enrichment for YSGIYYKPESL [L2HGDH_Y103_H98Y] and stop.
## Result 11

## Task Specify phosphorylation enrichment for IINENYDFLKV [NUP98_Y1664_G1669V_YF] and stop.
## Result 0.862

## Task Specify phosphorylation enrichment for RMSQRYRDVLQ [CYP1A2_Y72_G73R] and stop.
## Result 0.484

## Task Specify phosphorylation enrichment for RRVLVYGGRGA [QDPR_Y16] and stop.
## Result 0.357

## Task Specify phosphorylation enrichment for CTTIHYNFMCS [TP53_Y234_N239S_YF] and stop.
## Result 0.572

## Task Specify phosphorylation enrichment for FISLIYTNFEV [GSTP1_Y109_A114V_YF] and stop.
## Result 0.839

## Task Specify phosphorylation enrichment for GSETPYVDRTP [ESS2_Y335] and stop.
## Result 0.488

## Task Specify phosphorylation enrichment for IFHLSYLHNCE [PDE6B_Y227_YF] and stop.
## Result 0.494

## Task Specify phosphorylation enrichment for PKGWNYELPAT [PROM1_Y34_A31G] and stop.
## Result 0.518

## Task Specify phosphorylation enrichment for AHAGEYGAEAL [HBA1_Y25] and stop.
## Result 0.35

## Task Specify phosphorylation enrichment for KDFTIYNPNLL [VANGL1_Y290] and stop.
## Result 0.434

## Task Specify phosphorylation enrichment for NVDGKYSFLKV [GRM3_Y478_G475D_YF] and stop.
## Result 0.426

## Task Specify phosphorylation enrichment for DLTQDSEEWKR [ORC6_Y232_Y232S] and stop.
## Result 0.495

## Task Specify phosphorylation enrichment for KLFYIYTSGTT [SLC27A4_Y245] and stop.
## Result 0.449

## Task Specify phosphorylation enrichment for LLASRYDSPIN [ABLIM1_Y638] and stop.
## Result 1.12

## Task Specify phosphorylation enrichment for TAALWYIYSHT [ENG_Y612] and stop.
## Result 0.497
